# target: Beta-1 adrenergic receptor (Homo sapiens, UniProt P08588)
# Sequence (P08588 whole entry, looked up): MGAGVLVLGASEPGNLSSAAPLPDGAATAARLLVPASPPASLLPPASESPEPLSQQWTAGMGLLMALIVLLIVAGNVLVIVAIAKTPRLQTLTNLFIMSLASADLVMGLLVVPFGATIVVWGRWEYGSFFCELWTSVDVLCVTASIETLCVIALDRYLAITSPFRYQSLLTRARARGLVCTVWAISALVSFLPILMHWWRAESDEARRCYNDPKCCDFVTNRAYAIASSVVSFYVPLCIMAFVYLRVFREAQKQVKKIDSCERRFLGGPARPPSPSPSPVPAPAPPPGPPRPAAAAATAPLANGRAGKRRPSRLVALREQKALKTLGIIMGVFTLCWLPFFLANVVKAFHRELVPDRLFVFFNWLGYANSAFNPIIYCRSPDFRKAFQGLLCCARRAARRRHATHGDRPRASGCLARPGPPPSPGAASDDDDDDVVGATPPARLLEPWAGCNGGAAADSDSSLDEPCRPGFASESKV
# measurement_notes: Agonistic activity at human Beta-1 adrenergic receptor at 1000 nM concentration
# Type: functional
measured_property: Activity (%)
Please give a number only; it is taken to be in %.

Some solved entries appear below for comparison.
Q. Activity lookup needed for CS(=O)(=O)Oc1cccc2c(CCNC[C@H](O)c3cccc(NS(=O)(=O)c4ccccc4N)c3)c[nH]c12 , thanks.
A. 7

Q. Record: O=S(=O)(Nc1cccc([C@@H](O)CNCCc2c[nH]c3ccccc23)c1)c1cccs1
A. 2

Okay, next one:
Q. Activity lookup needed for CS(=O)(=O)Oc1cccc2c(CCNC[C@H](O)c3cccc(NS(=O)(=O)c4cc(Cl)c(Cl)s4)c3)c[nH]c12 , thanks.
A. 7
